Hello, the source for this data is PubChem BioAssay AID1159580, in case you need it.

experiment: chemical genetic growth profiling, strain panel (AID 1159580);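 note: tested at 20 µM; growth read once vehicle control cultures reached saturation at 30 °C; 1 = growth at the plate median or of vehicle wells; lower values mean less growth of the strain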; conditions: S. cerevisiae deletion strains, growth OD, locus YJL187C, strain SWE1, active compounds read low
Out of some 5,500 compounds screened, about 2,000 (36%) were called active. Roughly 18% stayed inconclusive and do not appear here. This is one part of the list.
Consider the following compounds and their measured normalized growth readings.

{"COMPOUND": "N#Cc1ccc([N+](=O)[O-])s1", "normalized growth": 0.261}
{"COMPOUND": "CCC(CCC(C)[C@H]1CCC2C3CC=C4C[C@@H](O)CC[C@]4(C)C3CC[C@@]21C)C(C)C (stereo partly drawn)", "normalized growth": 1.01}
{"COMPOUND": "Clc1cccc(-c2csc(Nc3cccnc3)n2)c1", "normalized growth": 0.957}
{"COMPOUND": "CCCCCCCCCCCCCCCC[n+]1ccccc1", "normalized growth": 0.0529}
{"COMPOUND": "CC(C(=O)O)[C@H]1CCC2C3CC=C4C[C@@H](O)CC[C@]4(C)C3CC[C@@]21C (stereo partly drawn)", "normalized growth": 1.01}
{"COMPOUND": "CC(C)(C)OC(=O)NC1CCN(C(=O)c2ccc(Cl)cc2Cl)CC1", "normalized growth": 1.01}
{"COMPOUND": "CC[N+]1(C)CCCC(OC(=O)C(O)(c2ccccc2)c2ccccc2)C1 (stereo not drawn)", "normalized growth": 1.02}
{"COMPOUND": "CCN(CC)CCNc1ccc(CO)c2sc3ccccc3c(=O)c12", "normalized growth": 1}
{"COMPOUND": "CC(C)(C)C(=O)C(Oc1ccc(Cl)cc1)n1cncn1 (stereo not drawn)", "normalized growth": 0.135}
{"COMPOUND": "COC(=O)c1ccc(Cl)cc1N(Cc1ccccc1)S(C)(=O)=O", "normalized growth": 1}
{"COMPOUND": "CCCCOc1cc(CC2CNC(=O)N2)ccc1OC (stereo not drawn)", "normalized growth": 0.998}
{"COMPOUND": "O=C(O)c1nc2cc(Cl)c(Cl)cc2[nH]c1=O", "normalized growth": 1.02}
{"COMPOUND": "OC1C(O)C(O)C(O)C(O)C1O (stereo not drawn)", "normalized growth": 1.01}
{"COMPOUND": "Cn1nnnc1SCC1=C(C(=O)O)N2C(=O)C(NC(=O)C(O)c3ccccc3)C2SC1 (stereo not drawn)", "normalized growth": 0.974}
{"COMPOUND": "O=C(Nc1ccccc1SCc1cccc(C(F)(F)F)c1)c1c(F)cccc1Cl", "normalized growth": 1.02}
{"COMPOUND": "O=C(O)c1coc2ccccc2c1=O", "normalized growth": 0.992}
{"COMPOUND": "CC(=O)[C@H]1CCC2C3CC=C4C[C@@H](OC(=O)CCC(=O)O)CC[C@]4(C)C3CC[C@@]21C (stereo partly drawn)", "normalized growth": 0.968}
{"COMPOUND": "Cc1c(C)c(C)c(CO)c(C)c1C", "normalized growth": 1}
{"COMPOUND": "CN(C)CCC=C1c2ccccc2CCc2ccccc21", "normalized growth": 0.985}
{"COMPOUND": "CC(=O)OCC(=O)[C@@]1(O)CCC2C3CC[C@@H]4C[C@H](O)CC[C@]4(C)C3C(=O)C[C@@]21C (stereo partly drawn)", "normalized growth": 1.02}
{"COMPOUND": "Cn1c(=O)c2[nH]c(C3CCCC3)nc2n(C)c1=O", "normalized growth": 0.99}
{"COMPOUND": "CN(C)C(=O)Oc1cc(OC(=O)N(C)C)cc(C(O)CNC(C)(C)C)c1 (stereo not drawn)", "normalized growth": 1.02}
{"COMPOUND": "CCC(/C=C/[C@@H](C)[C@H]1CCC2C3CC=C4C[C@@H](O)CC[C@]4(C)C3CC[C@@]21C)C(C)C (stereo partly drawn)", "normalized growth": 0.993}
